The origin of these recorded values is ChEMBL document CHEMBL4513216.

assay: Toxicity liver stage against HepG2, at 10uM; type: cell-based; set-up: test concentration 10 uM, cell line HepG2-A16-CD81EGFP; conditions: human, HepG2-A16-CD81EGFP cells; read-out: INHIBITION
I'd appreciate it if you could supply cytotoxicity at 10 µM values for the items below.
Give a bare numeral; the unit % is implied.

Check the records and state cytotoxicity at 10 µM for "CC(C)CN1CCC2(C1)CN(S(=O)(=O)c1cn(C)cn1)C2"
-116

Check the records and state cytotoxicity at 10 µM for "CCNc1nc2cn(-c3ccc(OC(F)(F)F)cc3)c(=O)c-2c[nH]1"
11.8

Check the records and state cytotoxicity at 10 µM for CC(C)(C)c1nccc(N2CCN(C3CCS(=O)(=O)C3)CC2)n1 (stereo unspecified)
1.05

Check the records and state cytotoxicity at 10 µM for CCC(NC(=O)C1CCN(C(C)C)CC1)c1cn2cccnc2n1 (stereo unspecified)
-6.21

Check the records and state cytotoxicity at 10 µM for "O=c1[nH]c(-c2ccncc2)ncc1-c1ccnc(N2CCOCC2)n1"
-1.2

Check the records and state cytotoxicity at 10 µM for Cc1ccc(C(=O)NC2CCN(C(C)C)C2)c(=O)[nH]1 (stereo unspecified)
5.26

Check the records and state cytotoxicity at 10 µM for "Cc1noc([C@H]2C[C@@H]3CCN(C(=O)N(C)C)C[C@H]3O2)n1"
2.8

Check the records and state cytotoxicity at 10 µM for COCCc1noc(CN2CCCC2c2c(C)nn(C)c2Cl)n1 (stereo unspecified)
-7.71

Check the records and state cytotoxicity at 10 µM for "Cc1cnn(CCNCc2cc(C)no2)c1"
8.77

Check the records and state cytotoxicity at 10 µM for CN(C)c1ncc(C2Nc3ccccc3C3=NCCCN32)cn1 (stereo unspecified)
-23.2

Check the records and state cytotoxicity at 10 µM for "COc1ccc(OC)c(CCC(=O)Nc2cc(C)n[nH]2)c1"
7.3

---

assay: Toxicity liver stage against HepG2, at 10uM; type: cell-based; set-up: test concentration 10 uM, cell line HepG2-A16-CD81EGFP; conditions: human, HepG2-A16-CD81EGFP cells; read-out: INHIBITION
I'd appreciate it if you could supply cytotoxicity at 10 µM values for the items below.
Give a bare numeral; the unit % is implied.

Check the records and state cytotoxicity at 10 µM for "O=C(O)c1ccc2[nH]cc(CN3CCOCC3)c2c1"
-9.48

Check the records and state cytotoxicity at 10 µM for "O=C(O)Cn1ccc(=O)c2cc(Cl)ccc21"
-17.1

Check the records and state cytotoxicity at 10 µM for Cc1nn(-c2ccccc2)nc1C(=O)N1CCCC(n2cccn2)C1 (centres undefined)
-9.53

Check the records and state cytotoxicity at 10 µM for "Cc1ccc(N2CCCN(C(=O)c3cc(CC(C)C)n[nH]3)CC2)nn1"
-14.6

Check the records and state cytotoxicity at 10 µM for "O=C(O)CC[C@@H]1CN(c2ncnc3[nH]ccc23)CC[C@@H]1N1CCOCC1"
-15.8

Check the records and state cytotoxicity at 10 µM for "COc1ccccc1C1CCN(C(=O)CN2C(=O)OC(C)(C)C2=O)CC1"
8.12

Check the records and state cytotoxicity at 10 µM for COc1ccc(CNC2CCN(c3ccccc3)C2)c(OC)c1OC (centres undefined)
7.49

Check the records and state cytotoxicity at 10 µM for "NS(=O)(=O)CCN(CCc1cccc(F)c1)C1CCCC1"
-6.08

Check the records and state cytotoxicity at 10 µM for "CC(=O)N1CCC2(CC1)COCCN2CCN(C)C"
-7.98

Check the records and state cytotoxicity at 10 µM for "COCCNC(=O)Cn1cc2c(n1)c(C)nn2C"
4.6

Check the records and state cytotoxicity at 10 µM for "c1ccc(CNc2ccccc2N2CCCC2)nc1"
10.9

Check the records and state cytotoxicity at 10 µM for "CCn1cc(-c2cc(C(F)(F)F)n(CCCN)n2)cn1"
-7.86

Check the records and state cytotoxicity at 10 µM for "O=C(CCCn1cncn1)N1CCC2(CC1)[C@H](O)C[C@@H]2OCCO"
5.3

Check the records and state cytotoxicity at 10 µM for Cc1ccc(C2CSCCN2C(=O)c2cnsn2)o1 (centres undefined)
5.11

Check the records and state cytotoxicity at 10 µM for "O=S1(=O)C[C@@H]2[C@H](C1)N(Cc1ncc[nH]1)CCN2CC1CC1"
-7.18

Check the records and state cytotoxicity at 10 µM for "Cc1ncsc1C(=O)NC1CCN(CCCC#N)CC1"
-14.7

Check the records and state cytotoxicity at 10 µM for O=C(NCCc1ccn(-c2ccccc2)n1)N1CCCC(O)C1 (centres undefined)
-41.8

Check the records and state cytotoxicity at 10 µM for O=C(NCC[S+]([O-])c1ccccc1)c1ccc2[nH]c(=O)[nH]c2c1 (centres undefined)
3.18

Check the records and state cytotoxicity at 10 µM for CC(c1nc(-c2ccccc2)no1)N1CCc2c(ncn2C2CC2)C1 (centres undefined)
7.12

Check the records and state cytotoxicity at 10 µM for "CCCN1CCC(Nc2nc(CC)ns2)CC1"
-2.59

Check the records and state cytotoxicity at 10 µM for "COCc1ccc(C(=O)N2CCN(CC3CC3)[C@@H]3CS(=O)(=O)C[C@@H]32)o1"
-15.5

Check the records and state cytotoxicity at 10 µM for O=C(O)C(c1ccc2c(c1)OCCO2)N1CCC(N2CCSCC2)CC1 (centres undefined)
-1.1

Check the records and state cytotoxicity at 10 µM for O=C(C1=CCCCC1)N1CCC2(CC1)COC(COc1ccccn1)C2 (centres undefined)
-1.88

Check the records and state cytotoxicity at 10 µM for "CC(C)n1cnc(-c2nc(C(=O)NC3CC3)c3ccccn23)c1"
-102

---

I'd appreciate it if you could supply cytotoxicity at 10 µM values for the items below.
assay: Toxicity liver stage against HepG2, at 10uM; format: cell-based; set-up: test concentration 10 uM, cell line HepG2-A16-CD81EGFP; conditions: human, HepG2-A16-CD81EGFP cells; read-out: INHIBITION
Give a bare numeral; the unit % is implied.

Check the records and state cytotoxicity at 10 µM for CC(CNC(=O)c1ccc(Cl)cc1F)N1CCN(C)CC1 (configuration not stated)
-8.56

Check the records and state cytotoxicity at 10 µM for CN1CCCc2cc(NC(=O)N3CCOC(C(N)=O)C3)ccc21 (configuration not stated)
0.602

Check the records and state cytotoxicity at 10 µM for CC1CCCCN1CCNC(=O)c1scnc1Cl (configuration not stated)
-6.27

Check the records and state cytotoxicity at 10 µM for "CC1CCN(S(=O)(=O)c2ccc(C(=O)N3CCSCC3)cc2)CC1"
9.54

Check the records and state cytotoxicity at 10 µM for "CS(=O)(=O)N1CCC(CNc2c(Cl)cccc2C#N)CC1"
-6.67

Check the records and state cytotoxicity at 10 µM for "CCc1ccc2nc(C)cc(C(=O)N[C@@H]3CNC[C@H]3O)c2c1"
-11

Check the records and state cytotoxicity at 10 µM for "CCS(=O)(=O)N1CCc2c(cccc2NCc2ncc[nH]2)C1"
-42.9

Check the records and state cytotoxicity at 10 µM for CC(=O)N1CCCN(C(C)c2ccc(Br)cc2)CC1 (configuration not stated)
7.89

Check the records and state cytotoxicity at 10 µM for "CCC(=O)NCC(=O)NCc1cc(Br)ccc1OC(F)F"
17.5

Check the records and state cytotoxicity at 10 µM for "COCCN1CCN(S(=O)(=O)C2CC2)Cc2ccc(C)nc21"
3.38

Check the records and state cytotoxicity at 10 µM for Cc1nc(CN(C)C2CCN(CCCOc3ccccc3C)C2)no1 (configuration not stated)
2.24

Check the records and state cytotoxicity at 10 µM for "Cc1ccccc1C1(CNc2nnc(C)c(C)c2C#N)CCOCC1"
-2.1

---

test: Toxicity liver stage against HepG2, at 10uM; assay type: cell-based; design: test concentration 10 uM, cell line HepG2-A16-CD81EGFP; conditions: human, HepG2-A16-CD81EGFP cells; read-out: INHIBITION
I'd appreciate it if you could supply cytotoxicity at 10 µM values for the items below.
Please don't drop the unit; write it after the number.

Check the records and state cytotoxicity at 10 µM for "Cn1cc(CN2CCCC23CCN(C(=O)c2ccccn2)CC3)cn1"
-1.94%

Check the records and state cytotoxicity at 10 µM for "CN(Cc1nc2ccccc2[nH]1)C(=O)C(C)(C)n1cc(Cl)cn1"
6.16%

Check the records and state cytotoxicity at 10 µM for COc1cc(Cl)ccc1C(=O)N1CCCC(n2nc(C)nc2C)C1 (centres undefined)
-5.8%

Check the records and state cytotoxicity at 10 µM for O=C(C1CCCN(Cc2cccnc2)C1)N1CCc2sccc2C1 (centres undefined)
7.99%

Check the records and state cytotoxicity at 10 µM for "Cn1c(Cn2ccnc2)nnc1C1CCN(C(=O)C2(C)CC2)CC1"
-9.7%

Check the records and state cytotoxicity at 10 µM for "CCNc1cc2c(nn1)CCN(C(=O)Cc1ccc(C)nc1)C2"
-3.63%

Check the records and state cytotoxicity at 10 µM for "COc1cccc(CN2CCN3C(=O)NC[C@H]3C2)n1"
-1.45%

Check the records and state cytotoxicity at 10 µM for CC(C)NC(=O)NC(=O)C(C)N1CCN(C2CCN(C(C)C)CC2)CC1 (centres undefined)
-15.5%

Check the records and state cytotoxicity at 10 µM for CC1CC(=O)c2cc(C(=O)N3CCc4ccccc4C3)c(=O)[nH]c2C1 (centres undefined)
-4.65%

Check the records and state cytotoxicity at 10 µM for CN(C)Cc1cc(C2CCCN(S(=O)(=O)c3cccc(Cl)c3)C2)nn1C (centres undefined)
0.288%

Check the records and state cytotoxicity at 10 µM for "CCOc1ccc(-c2nc(CN(C)Cc3c(C)noc3C)cs2)cc1"
38.6%

Check the records and state cytotoxicity at 10 µM for CCOCC1CN(CCc2ccccc2)Cc2c1cnn2C (centres undefined)
-120%

Check the records and state cytotoxicity at 10 µM for COCCNc1nc2c(c(NCC3CCOC3)n1)CCNCC2 (centres undefined)
-2.85%

Check the records and state cytotoxicity at 10 µM for "O=C(c1ccco1)N1C[C@H]2CCCN(Cc3ccc(F)cc3)[C@H]2C1"
0.255%

Check the records and state cytotoxicity at 10 µM for "COc1c(CNCCNC(=O)Cc2ccc(F)cc2)c(C)nn1C"
-3.09%

Check the records and state cytotoxicity at 10 µM for "OCc1ccc(CN2CCC(n3cc(-c4ccc(F)cc4)nn3)CC2)o1"
5.54%

Check the records and state cytotoxicity at 10 µM for "Cc1nc(C)c(C(=O)N2CCCN(Cc3cnn(C)c3)CC2)s1"
-9.58%

Check the records and state cytotoxicity at 10 µM for CC(C)c1csc(C2CCCN(C(=O)c3ccc[nH]3)C2)n1 (centres undefined)
-48.6%

Check the records and state cytotoxicity at 10 µM for "COCCN(Cc1ccoc1)C(=O)c1ccccn1"
9.24%

Check the records and state cytotoxicity at 10 µM for Cn1cc(C2CC(=O)NC23CCN(C(=O)NC2CC2)CC3)cn1 (centres undefined)
4.97%

Check the records and state cytotoxicity at 10 µM for "CC(C)c1[nH]c2ncccc2c1CN1CCC(O)CC1"
2.57%

Check the records and state cytotoxicity at 10 µM for "COCCN(Cc1cccs1)c1nc(CCN)nc2ccccc12"
4.49%

Check the records and state cytotoxicity at 10 µM for Cc1nc(C)c(C(C)NCc2cnc(N3CCOCC3)nc2)s1 (centres undefined)
-4.76%

Check the records and state cytotoxicity at 10 µM for "O=C(CS(=O)(=O)Cc1ccc(F)cc1)NCc1ccccc1F"
5.96%
